# EXPERIMENTAL DETAILS: Solubility of UV absorber in oil comprising ionic liquid
# Assay type: physicochemical
# CONDITIONS USED: oil/ionic liquid mixture, 21 °C, oil or lipid, thermodynamic from solid, Oil/IL 20/80 weight ratio, IL N-butyl-N′-methylimidazolium acetate, read-out: Solubility of Tinosorb ® S with Cetiol ® B as oil
READOUT TYPE: solubility (mg/mL)
Report as a plain number; the unit mg/mL is understood.

(Q) Please list solubility recorded for the compound CCCCC(CC)COc1ccc(-c2nc(-c3ccc(OC)cc3)nc(-c3ccc(OCC(CC)CCCC)cc3O)n2)c(O)c1 (stereo not shown)
(A) 12.4

* * *

# EXPERIMENTAL DETAILS: Solubility of agrochemical active ingredient in oil comprising ionic liquid
# Type: physicochemical
# CONDITIONS USED: Cetiol B oil comprising ionic liquid, 21 °C, oil or lipid, thermodynamic from solid, 21° C.; Oil/IL 80/20 weight ratio; IL N-ethyl-N′-methylimidazolium heptanoate; read-out: Solubility of fluxapyroxad with Cetiol ® B as oil
READOUT TYPE: solubility (mg/mL)
Give the value, in units of mg/mL, as a plain number.

(Q) Please list solubility recorded for the compound `Cn1cc(C(=O)Nc2ccccc2-c2cc(F)c(F)c(F)c2)c(C(F)F)n1`
(A) 35.9
